# tested_system: FXR (Homo sapiens, UniProt Q96RI1)
# Construct: purchased Invitrogen
# protocol_notes: Bile acid receptor FXR coactivator binding assay (LanthaScreen TR-FRET)
# Assay type: biochemical
# study_conditions: TR-FRET coactivator assay, four-parameter fit; read-out: EC50 of the compounds on FXR
EC50 less than 40 nM is yes; EC50 greater than or equal to 40 nM is no.

Before answering, review these 5 worked examples.
Input `Cn1nc(-c2ccc(N3CCC(OCc4c(-c5c(Cl)cccc5Cl)noc4C4CC4)CC3)cc2)cc1C(=O)O` ; condition: EC50 strictly below 40 nM. Does it hold? yes

One more compound: `O=C(O)c1cccc(-c2csc(N3CCC(OCc4c(-c5c(Cl)cccc5Cl)noc4C4CC4)CC3)n2)c1` no

Can you check `O=C(O)c1ccc(-c2csc(N3[C@@H]4CC[C@H]3C[C@@H](OCc3c(-c5ccccc5OC(F)(F)F)noc3C3CC3)C4)n2)c(C(F)(F)F)c1` next? no

Follow-up item: `Cc1cc(C(=O)O)ccc1-c1csc(N2[C@@H]3CC[C@H]2C[C@@H](OCc2c(-c4c(Cl)cccc4Cl)noc2C2CC2)C3)n1` yes

Subsequent entry: `O=C(O)c1ccc(-c2csc(N3[C@@H]4CC[C@H]3C[C@@H](OCc3c(-c5ccccc5OC(F)(F)F)noc3C3CC3)C4)n2)cc1F` yes

Then there is this compound:
Check if EC50 falls below 40 nM for `Cn1nc(C(=O)O)cc1-c1ccc(N2CCC(OCc3c(-c4c(Cl)cccc4Cl)noc3C3CC3)CC2)cc1` . no

====

# tested_system: FXR (Homo sapiens, UniProt Q96RI1)
# Construct: expressed in transfected cells; host or cells: HEK293
# Sequence (Q96RI1 1-486): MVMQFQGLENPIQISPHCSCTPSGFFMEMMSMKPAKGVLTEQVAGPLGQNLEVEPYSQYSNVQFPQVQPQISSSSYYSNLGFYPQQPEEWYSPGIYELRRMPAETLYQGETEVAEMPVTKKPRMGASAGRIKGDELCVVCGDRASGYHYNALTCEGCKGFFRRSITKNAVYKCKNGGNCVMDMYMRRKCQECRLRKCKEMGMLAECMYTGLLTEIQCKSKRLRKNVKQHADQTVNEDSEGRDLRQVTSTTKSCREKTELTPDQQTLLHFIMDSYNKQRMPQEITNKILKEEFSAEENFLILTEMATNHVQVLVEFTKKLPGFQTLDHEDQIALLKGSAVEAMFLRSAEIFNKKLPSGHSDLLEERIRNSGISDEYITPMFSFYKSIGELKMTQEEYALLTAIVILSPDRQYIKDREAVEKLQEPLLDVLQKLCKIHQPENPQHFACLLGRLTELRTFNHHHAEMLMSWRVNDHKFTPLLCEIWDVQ
# protocol_notes: Luciferase reporter gene assay (HEK293 cotransfected with FXR and human BSEP luciferase reporter)
# Type: cell-based
# study_conditions: HEK293, 18 hours incubation
readout_kind: pEC50
Conceptually, pEC50 converts a concentration in mol/L into minus its log10.

Here's what some known entries look like.
Report pEC50 for `O=C(O)c1ccc(-c2csc(N3[C@@H]4CC[C@H]3C[C@@H](OCc3c(-c5ccccc5OC(F)(F)F)noc3C3CC3)C4)n2)c(F)c1` please. 7.43

Same for `O=C(O)c1ccc(-c2csc(N3[C@@H]4CC[C@H]3C[C@@H](OCc3c(-c5ccccc5OC(F)(F)F)noc3C3CC3)C4)n2)cc1F` 7.68

How about this molecule: `O=C(O)c1ccc(-c2csc(N3[C@@H]4CC[C@H]3C[C@@H](OCc3c(-c5ccccc5OC(F)(F)F)noc3C3CC3)C4)n2)cc1` 7.24

Others:
Look up pEC50 for this molecule: `Cc1cc(C(=O)O)ccc1-c1csc(N2[C@@H]3CC[C@H]2C[C@@H](OCc2c(-c4c(Cl)cccc4Cl)noc2C2CC2)C3)n1` 8.22

====

# protocol_notes: Liver microsomal stability test, rat
# Type: in vitro ADME
# study_conditions: liver microsomes; rat liver microsome, 1 μM compound, 0.5 mg/mL, NADPH
readout_kind: half-life at 1 μM

Look up half-life at 1 μM for this compound: `O=C(O)c1ccc(-c2csc(N3[C@@H]4CC[C@H]3C[C@@H](OCc3c(-c5ccccc5OC(F)(F)F)noc3C3CC3)C4)n2)cc1C(F)(F)F` 16.1 h

====

# protocol_notes: Liver microsomal stability test, dog
# Type: in vitro ADME
# study_conditions: liver microsomes; dog liver microsome, 1 μM compound, 0.5 mg/mL, NADPH
readout_kind: CLint scaled at 1 μM (mL/min/kg)
Express it in mL/min/kg; write the number only.

I'd like to know its CLint scaled at 1 μM. The compound in question is `O=C(O)c1ccc(-c2csc(N3[C@@H]4CC[C@H]3C[C@@H](OCc3c(-c5ccccc5OC(F)(F)F)noc3C3CC3)C4)n2)cc1C(F)(F)F` 8.03

====

# tested_system: FXR (Homo sapiens, UniProt Q96RI1)
# Construct: expressed in transfected cells; host or cells: HEK293
# protocol_notes: Luciferase reporter gene assay (HEK293 cotransfected with FXR and human BSEP luciferase reporter)
# Type: cell-based
# study_conditions: HEK293; maximum activation effect, relative signal percentage, blank well = 100%
Entries and their Emax values follow.
Could you give me the number in %? Just the number is fine.

Some entries whose results are on file:
Quick check: Emax on FXR (Homo sapiens, UniProt Q96RI1), item `O=C(O)c1ccc(-c2csc(N3[C@@H]4CC[C@H]3C[C@@H](OCc3c(-c5ccccc5OC(F)(F)F)noc3C3CC3)C4)n2)cc1F` ? 322

How about this molecule: `O=C(O)c1ccc(-c2csc(N3CCC(OCc4c(-c5c(Cl)cccc5Cl)noc4C4CC4)CC3)n2)cc1` 248

// query: `Cn1nc(-c2ccc(N3CCC(OCc4c(-c5c(Cl)cccc5Cl)noc4C4CC4)CC3)cc2)cc1C(=O)O` 255

Please turn your attention to the following entry.
Form entry - test system: FXR (Homo sapiens, UniProt Q96RI1); read-out: Emax; molecule: `Cc1cc(C(=O)O)ccc1-c1csc(N2[C@@H]3CC[C@H]2C[C@@H](OCc2c(-c4ccccc4OC(F)(F)F)noc2C2CC2)C3)n1` 320

====

# tested_system: FXR (Homo sapiens)
# Construct: expressed in transfected cells; host or cells: HEK293
# protocol_notes: Luciferase reporter gene assay (HEK293 cotransfected with FXR and human BSEP luciferase reporter)
# Type: cell-based
# study_conditions: HEK293; maximum activation effect, relative signal percentage, blank well = 100%
readout_kind: Emax (%)
# output: bare number, implied unit %

Illustrative cases are given below, each with its answer.
Bench note: what Emax did O=C(O)c1ccc(-c2csc(N3[C@@H]4CC[C@H]3C[C@@H](OCc3c(-c5ccccc5OC(F)(F)F)noc3C3CC3)C4)n2)cc1 [Compound C41] show? 252

Entry to check: O=C(O)c1ccc(-c2csc(N3[C@@H]4CC[C@H]3C[C@@H](OCc3c(-c5ccccc5OC(F)(F)F)noc3C3CC3)C4)n2)s1 [Compound C35] 378

Do the same for O=C(O)c1ccc(-c2csc(N3[C@@H]4CC[C@H]3C[C@@H](OCc3c(-c5ccccc5OC(F)(F)F)noc3C3CC3)C4)n2)cc1C(F)(F)F [Compound C46] please 301

Next up:
Dear colleague, I am looking for the recorded Emax of the following compound: O=C(O)c1csc(-c2csc(N3[C@@H]4CC[C@H]3C[C@@H](OCc3c(-c5ccccc5OC(F)(F)F)noc3C3CC3)C4)n2)c1 [Compound C48] 382
